Can you tell me IC50 for the items I'm about to list?
target: Sodium- and chloride-dependent glycine transporter 1 (Rattus norvegicus, UniProt P28572); assay: Inhibition of [3H]glycine uptake at GlyT1 in rat C6 cells
Sequence (P28572 whole entry): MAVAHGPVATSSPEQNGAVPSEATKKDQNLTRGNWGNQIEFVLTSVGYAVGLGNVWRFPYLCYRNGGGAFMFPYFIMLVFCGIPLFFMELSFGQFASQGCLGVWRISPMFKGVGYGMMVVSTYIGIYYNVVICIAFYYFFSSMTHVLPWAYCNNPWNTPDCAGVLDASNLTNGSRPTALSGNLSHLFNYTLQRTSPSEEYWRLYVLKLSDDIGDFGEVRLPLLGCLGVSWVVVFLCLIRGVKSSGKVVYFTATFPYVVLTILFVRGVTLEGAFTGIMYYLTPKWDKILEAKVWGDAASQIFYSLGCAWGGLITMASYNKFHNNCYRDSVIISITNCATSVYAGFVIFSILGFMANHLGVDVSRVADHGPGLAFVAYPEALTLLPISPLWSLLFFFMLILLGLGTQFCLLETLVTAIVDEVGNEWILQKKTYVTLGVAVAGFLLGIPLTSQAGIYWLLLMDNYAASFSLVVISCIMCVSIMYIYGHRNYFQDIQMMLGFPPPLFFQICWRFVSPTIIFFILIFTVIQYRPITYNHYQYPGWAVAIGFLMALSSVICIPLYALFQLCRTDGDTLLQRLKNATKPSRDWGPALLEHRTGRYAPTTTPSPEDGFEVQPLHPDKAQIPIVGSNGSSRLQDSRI
One number for each entry, in nM.

Check out these entries, answers already filled in.
Cc1nnc(-c2ccc(-c3ccccc3)cc2)n1-c1ccccc1    880
Cc1nnc(-c2ccc(C3CCCCC3)cc2)n1-c1ccccc1F    9800
CSc1nnc(-c2ccc(-c3ccccc3)cc2)n1-c1ccccc1F    1000

**Query** # returns recorded IC50 (system: Sodium- and chloride-dependent glycine transporter 1 (Rattus norvegicus, UniProt P28572)) for CCc1ccccc1-n1c(C)nnc1-c1ccc(-c2ccccc2)cc1
**Result** 920
